Test system: K. pneumoniae H521 (KPC, SHV, TEM)
EXPERIMENTAL PROTOCOL: Antibacterial activity, MIC by agar dilution (CLSI)
Type: cell-based
TEST CONTEXT: Klebsiella pneumoniae, Table 2; K. pneumoniae H521 (KPC, SHV, TEM); read-out: MIC
REPORTED PROPERTY: MIC (µg/mL)
Number in µg/mL, nothing else.

get_value(item= O=C(Cc1cccc(OC[C@@H]2CCCN2)c1)NNC(=O)[C@@H]1CC[C@@H]2CN1C(=O)N2OS(=O)(=O)O , readout=MIC) returns 2

get_value(item= CC(C)[C@H](N)COc1ccc(CC(=O)NNC(=O)[C@@H]2CC[C@@H]3CN2C(=O)N3OS(=O)(=O)O)cc1 , readout=MIC) returns 8

get_value(item= C[C@H](N)COc1ccccc1CC(=O)NNC(=O)[C@@H]1CC[C@@H]2CN1C(=O)N2OS(=O)(=O)O , readout=MIC) returns 2

get_value(item= O=C(Cc1ccccc1O[C@H]1CCNC1)NNC(=O)[C@@H]1CC[C@@H]2CN1C(=O)N2OS(=O)(=O)O , readout=MIC) returns 8

get_value(item= CC(C)[C@@H](N)COc1ccc(CC(=O)NNC(=O)[C@@H]2CC[C@@H]3CN2C(=O)N3OS(=O)(=O)O)c(F)c1 , readout=MIC) returns 4

get_value(item= O=C(Cc1cccc(OC[C@@H]2CCNC2)c1)NNC(=O)[C@@H]1CC[C@@H]2CN1C(=O)N2OS(=O)(=O)O , readout=MIC) returns 2

get_value(item= O=C(Cc1ccc(O[C@H]2CCNC2)cc1)NNC(=O)[C@@H]1CC[C@@H]2CN1C(=O)N2OS(=O)(=O)O , readout=MIC) returns 1
